- tested-system: rat P4502B1 (Rattus norvegicus, UniProt P00176)
- Sequence (P00176 1-491): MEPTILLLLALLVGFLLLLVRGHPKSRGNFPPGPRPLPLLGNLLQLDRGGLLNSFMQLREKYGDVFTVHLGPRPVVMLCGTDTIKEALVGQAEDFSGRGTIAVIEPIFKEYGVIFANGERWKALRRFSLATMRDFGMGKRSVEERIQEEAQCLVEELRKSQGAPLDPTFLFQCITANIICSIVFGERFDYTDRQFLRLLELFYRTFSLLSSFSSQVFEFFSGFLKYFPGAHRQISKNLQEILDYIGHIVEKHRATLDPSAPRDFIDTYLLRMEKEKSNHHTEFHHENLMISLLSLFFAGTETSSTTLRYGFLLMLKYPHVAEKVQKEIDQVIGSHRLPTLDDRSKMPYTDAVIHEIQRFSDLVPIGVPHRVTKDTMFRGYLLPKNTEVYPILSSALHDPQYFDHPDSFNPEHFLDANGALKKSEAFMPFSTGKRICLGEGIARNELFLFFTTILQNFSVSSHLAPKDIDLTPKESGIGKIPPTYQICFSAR
pIC50: −log10 of the molar value.
measurement-kind: pIC50

Hi! What's the reported pIC50 for O=c1cc(-c2ccccc2)oc2cccc(O)c12 [Compound 5-HF, 5-hydroxy flavone, reference compound] on rat P4502B1 (Rattus norvegicus, UniProt P00176)?
< 4.30

Hi! What's the reported pIC50 for O=c1cc(-c2ccccc2)oc2cc(O)ccc12 [Compound 7-HF, 7-hydroxy flavone, reference compound] on rat P4502B1 (Rattus norvegicus, UniProt P00176)?
< 4.30
